- TARGET OR TEST SYSTEM: UniProt:P37136
- Sequence (P37136 whole entry): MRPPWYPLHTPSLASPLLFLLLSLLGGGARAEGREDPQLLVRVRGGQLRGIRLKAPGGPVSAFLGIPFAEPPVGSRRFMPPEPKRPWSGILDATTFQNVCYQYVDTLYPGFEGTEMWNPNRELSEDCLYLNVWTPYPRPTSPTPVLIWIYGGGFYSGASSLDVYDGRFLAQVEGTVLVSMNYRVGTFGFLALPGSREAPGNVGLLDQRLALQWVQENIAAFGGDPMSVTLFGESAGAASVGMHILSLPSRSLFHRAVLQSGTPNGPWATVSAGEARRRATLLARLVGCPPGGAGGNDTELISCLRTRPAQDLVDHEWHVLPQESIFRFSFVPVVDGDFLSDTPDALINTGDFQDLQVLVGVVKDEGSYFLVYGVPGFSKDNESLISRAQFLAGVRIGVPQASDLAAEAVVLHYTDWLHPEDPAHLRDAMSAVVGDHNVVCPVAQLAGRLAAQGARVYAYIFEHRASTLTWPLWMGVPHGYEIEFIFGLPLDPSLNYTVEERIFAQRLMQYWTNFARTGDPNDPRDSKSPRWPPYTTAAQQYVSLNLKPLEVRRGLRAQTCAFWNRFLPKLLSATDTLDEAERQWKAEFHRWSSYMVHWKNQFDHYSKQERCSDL
- METHOD SUMMARY: Inhibition of rat cortex AChE using acetylthiocholine iodide as substrate incubated for 15 mins by Ellman's method
MEASUREMENT LABEL: IC50 (µM)

COMPOUND STRUCTURE | MEASURED VALUE
CCNC(=O)Oc1ccc(-c2cc(=O)c3c(O)c(O)c(O)cc3o2)cc1 | 1.2

* * *

- TARGET OR TEST SYSTEM: Acetylcholinesterase (Electrophorus electricus)
- Sequence (O42275 whole entry): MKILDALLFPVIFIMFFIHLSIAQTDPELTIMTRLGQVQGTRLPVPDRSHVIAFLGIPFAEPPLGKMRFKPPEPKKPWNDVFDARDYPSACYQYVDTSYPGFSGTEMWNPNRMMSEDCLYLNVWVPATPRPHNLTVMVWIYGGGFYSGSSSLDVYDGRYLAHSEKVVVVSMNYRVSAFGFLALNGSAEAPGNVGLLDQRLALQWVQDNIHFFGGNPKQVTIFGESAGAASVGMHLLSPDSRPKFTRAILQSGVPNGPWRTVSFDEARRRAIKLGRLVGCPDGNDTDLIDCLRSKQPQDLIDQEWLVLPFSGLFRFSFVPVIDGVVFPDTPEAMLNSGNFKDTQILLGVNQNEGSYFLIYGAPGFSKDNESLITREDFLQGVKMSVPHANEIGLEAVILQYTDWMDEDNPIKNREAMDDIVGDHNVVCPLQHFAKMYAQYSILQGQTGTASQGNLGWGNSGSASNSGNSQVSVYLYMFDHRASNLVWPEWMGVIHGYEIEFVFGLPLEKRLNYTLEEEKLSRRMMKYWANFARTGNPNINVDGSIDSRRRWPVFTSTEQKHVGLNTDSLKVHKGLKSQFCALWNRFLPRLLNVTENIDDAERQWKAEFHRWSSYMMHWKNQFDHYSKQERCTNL
- METHOD SUMMARY: Inhibition of electric eel AChE
MEASUREMENT LABEL: log10 IC50 (log10 of the value in nM)

COMPOUND STRUCTURE | log10 IC50
CCCCCCCNC(=O)Oc1ccc(F)c(-c2coc3c4c(ccc3c2=O)OC(C)(C)C=C4)c1 | 4.89
O=C(Nc1cccc([N+](=O)[O-])c1)OCCNc1c2ccccc2nc2ccccc12 | 1.34
CCCCCCCCNC(=O)Oc1cc(OC(=O)NCCCCCCCC)cc(OC(=O)NCCCCCCCC)c1 | 1.18
CCCCCCCNC(=O)OCCN1CCN(CCCCCOc2ccc3ccc(=O)[nH]c3c2)CC1 | 2.59
CN(C)C(=O)Oc1cccc(-c2coc3c4c(ccc3c2=O)OC(C)(C)C=C4)c1 | 4.53

Origin of the recorded values: ChEMBL document CHEMBL5214927
